Taken from PubChem BioAssay AID330.

Assignment: determine reported T/C for the given compounds.
Test system: P388 leukemia ip, CD2F1 mice, survival T/C
Test: NCI In Vivo Anticancer Drug Screen. Data for tumor model P388 Leukemia (intraperitoneal) in CD2F1 (CDF1) mice
Conditions: endpoint: median survival time; dose: 10.0 mg/kg/injection; schedule: Q01DX009 (ip); vehicle: saline with Tween-80; higher = longer survival
Inconclusive results and toxic doses are left out.

A selection of reference data follows.
{"compound": "CCCCCCCN(CCCCCCC)CC(O)c1c(OC)c2cc(Cl)ccc2c2ccc(Cl)cc12 (stereo not drawn)", "assay_target": "P388 leukemia ip, CD2F1 mice, survival T/C", "T/C": "94 % of control"}
{"compound": "C=C1C(=O)OC2/C=C(\\C)C(=O)CC3OC(C)(C)OC3(C)CC(OC(=O)/C(C)=C/C)C12 (stereo not drawn)", "assay_target": "P388 leukemia ip, CD2F1 mice, survival T/C", "T/C": "99 % of control"}
{"compound": "CN1CCN(c2ccccc2N)CC1", "assay_target": "P388 leukemia ip, CD2F1 mice, survival T/C", "T/C": "100 % of control"}

Give T/C for all compounds that follow.
1. C#CC(OC(=O)NC1CCCCC1)(c1ccccc1)c1ccccc1
2. CC(=O)OCC(C)(C)COC1OCN(C(C)(C)C)CC1(C)C (stereo not drawn)
3. COC1=CC(=O)C(O)=C/C1=C\C=C\c1ccccc1

1. 93 % of control
2. 94 % of control
3. 110 % of control

Could you tell me T/C for each of these compounds? They are listed below.
1. CC(C)=CCC(OC(=O)C=C(C)C)C1=CC(=O)c2c(O)ccc(O)c2C1=O (stereo not drawn)
2. COc1cc(O)c(Cc2ccc3c(c2)OCO3)cc1O

["110 % of control", "115 % of control"]
